Assay readout: melting point

Known results for compounds:
Smiles entry: CC1(C)CC(NC(=O)Nc2ccc(C(F)(F)F)cc2)CC(C)(C)C1=O
Assay readout: melting point
Val: 152 to 153 °C

Smiles entry: O=C(NC1CCOCC1)NC12CC3CC(CC(C3)C1)C2
Assay readout: melting point
Val: 239 to 242 °C

Smiles entry: O=C(NCC1CCOCC1)Nc1ccc(C(F)(F)F)cc1
Assay readout: melting point
Val: 148 to 149 °C

Smiles entry: O=C(Nc1ccc(C(F)(F)F)cc1)NC1CCOCC1
Assay readout: melting point
Val: 196 to 198 °C

Shifting focus to the compound that follows.
Ask | Quick one: melting point of CC1(C)CC(NC(=O)NC23CC4CC(CC(C4)C2)C3)CC(C)(C)C1=O ?
Reply | 234 to 238 °C

###

Catalogue of melting point values

Ask | Quick one: melting point of O=C(NC1CCS(=O)(=O)CC1)NC12CC3CC(CC(C3)C1)C2 ?
Reply | 244 to 246 °C

Ask | Quick one: melting point of O=C(Nc1ccc(C(F)(F)F)cc1)NC1CCS(=O)(=O)CC1 ?
Reply | 196 to 198 °C

Ask | Quick one: melting point of O=C(NCC1CCOCC1)NC12CC3CC(CC(C3)C1)C2 ?
Reply | 196 to 198 °C

###

- Tested on: soluble epoxide hydrolase (sEH)
- Test details: Fluorescent assay for mouse and human soluble epoxide hydrolase (CMNPC substrate)
- Type: biochemical
- Conditions used: Conc 200 nM; recombinant sEH, CMNPC 5 μM, 30° C.; mouse or human enzyme not stated
Cut-off 90% on % Inh (percent inhibition), inclusive. At or above means satisfied; below means not satisfied.

The examples below pair each entry with its known result.
Smiles entry: O=C(NCC1CCOCC1)Nc1ccc(C(F)(F)F)cc1
Tested target: soluble epoxide hydrolase (sEH)
Category label: not satisfied
//
Smiles entry: O=C(NC1CCS(=O)(=O)CC1)NC12CC3CC(CC(C3)C1)C2
Tested target: soluble epoxide hydrolase (sEH)
Category label: not satisfied

Ask | Assess whether reported % Inh (percent inhibition) for CC1(C)CC(NC(=O)NC23CC4CC(CC(C4)C2)C3)CC(C)(C)C1=O sits at 90% or higher.
Reply | satisfied

Ask | Assess whether reported % Inh (percent inhibition) for CC1(C)CC(NC(=O)Nc2ccc(C(F)(F)F)cc2)CC(C)(C)C1=O sits at 90% or higher.
Reply | satisfied

###

- Tested on: soluble epoxide hydrolase (sEH)
- Test details: Fluorescent assay for mouse and human soluble epoxide hydrolase (CMNPC substrate)
- Format: biochemical
- Conditions used: Conc 200 nM; recombinant sEH, CMNPC 5 μM, 30° C.; mouse or human enzyme not stated
Catalogue of % Inh (percent inhibition) values
Please respond with the number in % and leave the unit unwritten.

Smiles entry: O=C(Nc1ccc(C(F)(F)F)cc1)NC1CCS(=O)(=O)CC1
Assay readout: % Inh (percent inhibition)
Val: 92
--
Smiles entry: O=C(NCC1CCOCC1)NC12CC3CC(CC(C3)C1)C2
Assay readout: % Inh (percent inhibition)
Val: 89
--
Smiles entry: O=C(Nc1ccc(C(F)(F)F)cc1)NC1CCOCC1
Assay readout: % Inh (percent inhibition)
Val: 91

Shifting focus to the molecule that follows.
Ask | Quick one: % Inh (percent inhibition) of O=C(NC1CCOCC1)NC12CC3CC(CC(C3)C1)C2 ?
Reply | 90
